target: T1, EGFRvIII (deletion mutant EGFR) (human, UniProt P00533 25-645, limits assumed); assay: EGFRvIII ELISA (Example 1)
T1 construct: also called deltaEGFR; rhEGFRvIII
Measured Property: binding result

// worked examples, binding result included
Binder: antibody 1261 (antibody, human IgG1, kappa, V domains shown, Chimeric IgG1 kappa) VH: EVQLVESGGGLVKPGGSLKLSCAVSGFTFSSYVMSWVRQTPEKRLEWVATITSGGRNIYYLDSVKGRFTISRDNAKNTLYLQMSSLRSEDTAMYYCARHEDYRYDGYYAMDYWGQGTSVTVSS VL: QIVLTQSPAIMSASPGEKVTITCSASSSVSYMHWFQQKPGTSPKLWIYSTSNLASGVPARFSGSGSGTSYSLTISRMEAEDAATYYCQQRSSYPYTFGGGTKLELKR
binding result: no binding
//
Binder: antibody 1260 (antibody, human IgG1, kappa, V domains shown, Chimeric IgG1 kappa) VH: QVQLKESGPGLVAPSQSLSITCTVSGFSLTTYGVHWVRQPPGKGLEWLGVIWAGGSTNYNSALMSRLSIKKDNSKSQVFLKMNSLQTDDTAMYYCARAYGYNFDYWGQGTTLTVSS VL: DIQMTQTTSSLSASLGDRVTISCSASQGITNYLNWYQQKPDGTVKLLIYYSSSLHSGVPSRFSGSGSGTDYSLTISNLEPEDIATYYCQQYSEIPYTFGGGTKLELKR
binding result: no binding
//
Binder: antibody 1308 (antibody, human IgG1, kappa, V domains shown, Chimeric IgG1 kappa) VH: EVQLQQSGAELVRPGSSVKISCKASGYAFSSYWMNWVRQRPGQGLEWIGQIYPGDGDTNYNGKFKGRATLTANKSSSTAYMQLSSLTSEDSAVYFCARRASSLYDVYPYYFDYWGQGTTLTVSS VL: DIQMTQTTSSLSASLGDRVTISCRASQDISNYLNWYQQKPDGTVKVLIYYTSRLHSGVPSRFSGSGSGTDYSLTISNLEQEDIATYFCQQGNTLPYTFGGGTKLEIKR
binding result: no binding
//
Binder: antibody 1257 (antibody, human IgG1, kappa, V domains shown, Chimeric IgG1 kappa) VH: EVQLQQSGPELVKPGASVKIPCKTSGYTFTDYNMAWVKQSHGKSLEWIGDIIPNNGGAIYNQKFKGKATLTVDKSSSTASMELRSLTSEDTAVYFCARKNIYYRYDGAGALDYWGQGTSVTVSS VL: QIVLTQSPAIMSASPGEKVTMTCSASSSVSYIYWYQQKPGSSPRLLIYDASNLASGVPVRFSGSGSGTSYSLTISRMEAEDAATYYCQQWSSYPITFGSGTKLEIKR
binding result: no binding

Continue with the binder presented below.
*Q* For antibody 1347 (antibody, human IgG1, kappa, V domains shown, Chimeric IgG1 kappa) VH: QVQLKESGPGLVAPSQSLSITCTVSGFSLTGHGVNWVRQPPGKGLEWLGMIWGDGSTDYNSTLKSRLSISKDNSKSQVFLKMNSLQTDDTARYYCARGYGYLYYFDYWGQGTTLTVSS VL: ENVLTQSPAIMSASPGEKVTMTCRASSSVSSSYLHWYQQKSGASPKLWIYSTSNLASGVPARFSGSGSGTSYSLTVNSVETEDAATYYCHQYSGFPFTFGSGTKLELKR , write its binding result.
*A* no binding
